Tested on: Klebsiella pneumoniae
Condition summary: Concentration 20 uM; ASSAY_TEST Inhibition of Bacterial Growth; detection method Absorption (OD600); MEDIA CAMHB; plate type 384well; NBS; CORNING #3640; time 18 hr
Description: Antibacterial activity against Klebsiella pneumoniae MDR ATCC 70063 (CO-ADD:GN_003); MIC in CAMBH media using NBS plates, by OD(600)
Potency and affinity values are given separately.
Reported Inhibition values are given for each entry in this list.
Please reply with the bare figure in % and do not write the unit itself.

Sample records with Inhibition:
Ask | Name the reported Inhibition value associated with the compound N#CCCCCN1CCCC1
Reply | 18.95

Ask | Another compound: CCCCOc1nc2c(c(=O)n(C)c(=O)n2C)n1C
Reply | 3.58

Ask | Note, next up: COc1cc(/C=N/N=c2\[nH]c3c(=O)n(C)c(=O)n(C)c3[nH]2)ccc1O
Reply | -8.37

Ask | And the next one, O=C(O)CCC(=O)OCCN(Cc1ccc(Oc2ccc([N+](=O)[O-])cc2)cc1)C(=O)C(Cl)Cl ?
Reply | 4.09

Ask | Would you mind doing Cc1cccc(N=C(S)Nc2cccc(C)n2)n1 as well?
Reply | 8.62

Next:
Ask | Dear colleague, I am looking for the recorded Inhibition of the following compound: COc1cc2oc3cc(C)oc(=O)c3c2cc1OC
Reply | 14.11

Ask | Thanks! And Nc1nc(Cl)cc(Nc2ccccc2Cl)n1 ?
Reply | 12.81

Ask | Would you mind doing Cn1nc(N)c2ncc(C(Cl)(Cl)Cl)nc21 as well?
Reply | 9.07

====

System: Staphylococcus aureus
Method: Antibacterial activity against Staphylococcus aureus MRSA ATCC 43300 (CO-ADD:GP_020); MIC in CAMBH media using NBS plates, by Resazurin F(560/590)
Format: functional
Condition summary: Concentration 20 uM, ASSAY_TEST Inhibition of Bacterial Growth, detection method Resazurin, Fluorescence (ex560/em590), MEDIA CAMHB, plate type 384well, CORNING #3640, time 18 hr
Overview of recorded Inhibition for various compounds
Just the number please, in %, no unit attached.

Worked set:
Ask | Give the reported Inhibition for Cc1nc(NC(=N)N(C)C)nc(O)c1C (system: Staphylococcus aureus).
Reply | 4.99

Ask | What would you report for CC1=CC(=O)C(/C(C)=N/c2ccccc2Cl)C(=O)O1 (stereo unspecified) ?
Reply | 7.59

Ask | # iterate: COc1ccc(CN2CCOC2=O)cc1OC
Reply | 2.93

Ask | Another compound: O=C(NC1CCCCC1)c1cc2ccccc2cc1O
Reply | 11.46

Ask | Entry Cc1ccc(NC(=O)N2CCCCC2)cc1[N+](=O)[O-] please
Reply | 0.24

Query compound follows.
Ask | Short answer please: Inhibition, Staphylococcus aureus, entry O=C(c1ccccc1)c1ccc(Sc2ccc([N+](=O)[O-])cc2)cc1
Reply | 11.06

====

System: Escherichia coli
Method: Antibacterial activity against Escherichia coli ATCC 25922 (CO-ADD:GN_001); MIC in CAMBH media using NBS plates, by Resazurin F(560/590)
Type: functional
Condition summary: Concentration 20 uM, ASSAY_TEST Inhibition of Bacterial Growth, detection method Resazurin, Fluorescence (ex560/em590), MEDIA CAMHB, plate type 384well, CORNING #3640, time 18 hr
Experimental endpoint: Inhibition (%)
Dear colleague, please return just the value in %, with no unit written.

Illustrative cases are given below, each with its answer.
Ask | Requested read-out: Inhibition. Entry: CC1CC(C)(C)NC2(CCCC2)N1 (stereo unspecified)
Reply | 5.91

Ask | // query: CCOC(=O)CCCN(c1[nH]c(C)c(C)c1C#N)S(=O)(=O)c1ccc(C)cc1
Reply | 15.68

Here is the next item to consider.
Ask | For Cc1c(Cl)cccc1Nc1ncccc1C(=O)OCC(O)CO (stereo unspecified) , what is its reported Inhibition?
Reply | -0.19
